Entries annotated with measured remaining at 1 h, 10 µM
Experiment: Peptide stability in simulated intestinal fluid (SIF)
Assay type: in vitro ADME
Conditions: pig, 37 °C, porcine pancreatin, pH 6.8, 1 h
*1 amine or outer side, *2 acyl side, *3 side chain or, on linkers, in order; H or OH if unused. Where a SMILES comes first, the peptide text is derived from it. Bridges are numbered along the chain shown (N, C = ends). [ ]: non-standard residue; d: D form. 2Nal = N[C@@H](Cc1ccc2ccccc2c1)C(=O)O; AEF = NCCOc1ccc(C[C@H](N)C(=O)O)cc1; X1 = O=C(Cc1ccc(CN[*:1])cc1)[*:2]; αMeL = CC(C)C[C@](C)(N)C(=O)O; CH2COCH2 = O=C(C[*:1])C[*:2]; Dab = NCC[C@H](N)C(=O)O
Record the value in %, omitting the unit from your answer.

>>> value("CC(C)C[C@]1(C)NC(=O)[C@H](Cc2ccc3ccccc3c2)NC(=O)[C@H](Cc2ccc(OCCN)cc2)NC(=O)[C@@H]2CSCC(=O)CSC[C@H](NC(=O)[C@H](CO)NC(=O)Cc3ccc(cc3)CNC(=O)CC[C@@H](C(=O)N[C@@H](CCN)C(N)=O)NC1=O)C(=O)N[C@@H](Cc1c[nH]c3ccccc13)C(=O)N[C@@H](CCC(N)=O)C(=O)N2 [Ref 82, reference compound] ([X1]SCWQC[AEF][2Nal][αMeL]E[Dab]-NH2; linker 3-6 via CH2COCH2; lactam N-10)")
95

**Query** Data request, read-out remaining at 1 h, 10 µM, for CC[C@H](C)[C@@H]1NC(=O)[C@@H]2CCCCNC(=O)CC[C@@H](C(=O)N[C@@H](CCN)C(=O)N[C@@H](Cc3cccnc3)C(=O)NC)NC(=O)[C@](C)(CC(C)C)NC(=O)[C@H](Cc3ccc4ccccc4c3)NC(=O)[C@H](Cc3ccc(OCCN)cc3)NC(=O)[C@H](CCC(=O)N2)NC(=O)[C@H](CCC(N)=O)NC(=O)[C@H](Cc2c[nH]c3ccccc23)NC(=O)[C@H](C(C)C)NC1=O [Compound 60]
**Result** 76

**Query** Data request, read-out remaining at 1 h, 10 µM, for CC[C@H](C)[C@@H]1NC(=O)[C@@H]2CCCCNC(=O)CC[C@@H](C(=O)NCC(=O)N[C@H](Cc3cccnc3)C(N)=O)NC(=O)[C@](C)(C(C)C)NC(=O)[C@H](Cc3ccc4ccccc4c3)NC(=O)[C@H](Cc3ccc(C)cc3)NC(=O)[C@H](CCC(=O)N2)NC(=O)[C@H](CCC(N)=O)NC(=O)[C@H](Cc2c[nH]c3ccccc23)NC(=O)[C@H](C(C)C)NC1=O [Compound 19]
**Result** 90

###

pIC50 tested on UniProt Q5VWK5: recorded values
Where a SMILES comes first, the peptide text is derived from it. Bridges are numbered along the chain shown (N, C = ends). [ ]: non-standard residue; d: D form. 2Nal = N[C@@H](Cc1ccc2ccccc2c1)C(=O)O; AEF = NCCOc1ccc(C[C@H](N)C(=O)O)cc1; 3Pal = N[C@@H](Cc1cccnc1)C(=O)O; αMeL = CC(C)C[C@](C)(N)C(=O)O
Keep it numeric: pIC50 is minus log10 of the concentration in mol/L.

>>> value("CC[C@H](C)[C@@H]1NC(=O)[C@@H]2CCCCNC(=O)CC[C@@H](C(=O)N[C@@H](CCN)C(=O)NCCCc3cccnc3)NC(=O)[C@](C)(CC(C)C)NC(=O)[C@H](Cc3ccc4ccccc4c3)NC(=O)[C@H](Cc3ccc(OCCN)cc3)NC(=O)[C@H](CCC(=O)N2)NC(=O)[C@H](CCC(N)=O)NC(=O)[C@H](Cc2c[nH]c3ccccc23)NC(=O)[C@H](C(C)C)NC1=O")
8.59

**Query** Data request, read-out pIC50, for CNC(=O)[C@H](Cc1cccnc1)NC(=O)[C@H](CCN)NC(=O)[C@@H]1CCC(=O)NCC[C@@H]2NC(=O)CC[C@H](NC(=O)[C@H](CCC(N)=O)NC(=O)[C@H](Cc3c[nH]c4ccccc34)NC(=O)CNC2=O)C(=O)N[C@@H](Cc2ccc(OCCN)cc2)C(=O)N[C@@H](Cc2ccc3ccccc3c2)C(=O)N[C@@](C)(CC(C)C)C(=O)N1
**Result** 7.92

**Query** Data request, read-out pIC50, for CC[C@H](C)[C@@H]1NC(=O)[C@@H]2CCCCNC(=O)CC[C@@H](C(=O)N3CCC[C@H]3C(=O)N[C@@H](Cc3cccnc3)C(=O)NC)NC(=O)[C@](C)(CC(C)C)NC(=O)[C@H](Cc3ccc4ccccc4c3)NC(=O)[C@H](Cc3ccc(OCCN)cc3)NC(=O)[C@H](CCC(=O)N2)NC(=O)[C@H](CCC(N)=O)NC(=O)[C@H](Cc2c[nH]c3ccccc23)NC(=O)[C@H](C(C)C)NC1=O [Compound 63] (KIVWQE[AEF][2Nal][αMeL]EP[3Pal]-NHMe; lactam 1-10, N-6)
**Result** 6.82

###

Entries annotated with measured pIC50
Molecular target: human IL-23R (Homo sapiens, UniProt Q5VWK5)
Sequence (Q5VWK5 22-629): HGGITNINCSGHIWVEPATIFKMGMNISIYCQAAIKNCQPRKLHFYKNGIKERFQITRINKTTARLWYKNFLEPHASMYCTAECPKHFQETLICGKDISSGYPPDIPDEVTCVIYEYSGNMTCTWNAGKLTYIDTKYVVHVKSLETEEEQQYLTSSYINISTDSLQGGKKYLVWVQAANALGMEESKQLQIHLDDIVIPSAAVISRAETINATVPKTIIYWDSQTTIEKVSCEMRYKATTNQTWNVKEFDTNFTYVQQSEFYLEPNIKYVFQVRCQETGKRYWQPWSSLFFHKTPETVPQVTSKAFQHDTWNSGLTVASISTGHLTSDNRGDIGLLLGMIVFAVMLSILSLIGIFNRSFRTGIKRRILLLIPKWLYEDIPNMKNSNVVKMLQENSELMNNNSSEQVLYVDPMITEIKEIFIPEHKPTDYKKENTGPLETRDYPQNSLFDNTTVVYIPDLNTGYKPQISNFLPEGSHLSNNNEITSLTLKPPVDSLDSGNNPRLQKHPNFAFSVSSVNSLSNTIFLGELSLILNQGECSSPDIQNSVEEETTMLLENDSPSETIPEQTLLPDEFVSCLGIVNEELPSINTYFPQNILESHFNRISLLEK
Keep it numeric: pIC50 is minus log10 of the concentration in mol/L.

>>> value("CNC(=O)[C@H](Cc1cccnc1)NC(=O)[C@H](CCN)NC(=O)[C@@H]1CCC(=O)NCCCC[C@@H]2NC(=O)CC[C@H](NC(=O)[C@H](CCC(N)=O)NC(=O)[C@H](Cc3c[nH]c4ccccc34)NC(=O)CCCNC2=O)C(=O)N[C@@H](Cc2ccc(OCCN)cc2)C(=O)N[C@@H](Cc2ccc3ccccc3c2)C(=O)N[C@@](C)(CC(C)C)C(=O)N1")
10.62

Field: next compound
**Query** Data request, read-out pIC50, for CC[C@H](C)[C@@H]1NC(=O)[C@@H]2CCCCNC(=O)CC[C@@H](C(=O)NCCc3cccnc3)NC(=O)[C@](C)(C(C)C)NC(=O)[C@H](Cc3ccc4ccccc4c3)NC(=O)[C@H](Cc3ccc(OCCN)cc3)NC(=O)[C@@H](CCC(=O)N2)NC(=O)[C@H](CCC(N)=O)NC(=O)[C@H](Cc2c[nH]c3ccccc23)NC(=O)[C@H](C(C)C)NC1=O
**Result** 6.96

###

Experiment: Peptide stability in simulated gastric fluid (SGF)
Assay type: in vitro ADME
Details: pig, simulated gastric fluid (SGF) with porcine pepsin (3.2 g/L), pH 1.2, 10 µM, 37 °C, porcine pepsin, pH 1.2, 4 h; read-out: SGF (% remaining 4 h)
Entries annotated with measured remaining at 4 h, 10 µM
Record the value in %, omitting the unit from your answer.

Example cases with answers are listed next.
>>> value("CC[C@H](C)[C@@H]1NC(=O)[C@@H]2CCCCNC(=O)CC[C@@H](C(=O)NCCCCC(=O)N[C@@H](Cc3cccnc3)C(=O)NC)NC(=O)[C@](C)(CC(C)C)NC(=O)[C@H](Cc3ccc4ccccc4c3)NC(=O)[C@H](Cc3ccc(OCCN)cc3)NC(=O)[C@H](CCC(=O)N2)NC(=O)[C@H](CCC(N)=O)NC(=O)[C@H](Cc2c[nH]c3ccccc23)NC(=O)[C@H](C(C)C)NC1=O")
90
>>> value("CC[C@H](C)[C@@H]1NC(=O)[C@@H]2CCCCNC(=O)CC[C@@H](C(=O)NC3(C(=O)N[C@@H](Cc4cccnc4)C(=O)NC)CCNCC3)NC(=O)[C@](C)(CC(C)C)NC(=O)[C@H](Cc3ccc4ccccc4c3)NC(=O)[C@H](Cc3ccc(OCCN)cc3)NC(=O)[C@H](CCC(=O)N2)NC(=O)[C@H](CCC(N)=O)NC(=O)[C@H](Cc2c[nH]c3ccccc23)NC(=O)[C@H](C(C)C)NC1=O")
108

**Query** Data request, read-out remaining at 4 h, 10 µM, for CC[C@H](C)[C@@H]1NC(=O)[C@@H]2CCCCNC(=O)CC[C@@H](C(=O)NCCc3cccnc3)NC(=O)[C@](C)(C(C)C)NC(=O)[C@H](Cc3ccc4ccccc4c3)NC(=O)[C@H](Cc3ccc(OCCN)cc3)NC(=O)[C@H](CCC(=O)N2)NC(=O)[C@H](CCC(N)=O)NC(=O)[C@H](Cc2c[nH]c3ccccc23)NC(=O)[C@H](C(C)C)NC1=O
**Result** 96
